tested.system: T1, human SNX27(K496D) (human, UniProt Q96L92 1-541, K496D)
T1 construct: SNX27, human, full length; the text prints R496D, the methods and the legend K496D; also called hSNX27 K496D; SNX27(R496D)
assay.text: ITC; 600 μM SNX1(75-92) peptide titrated into 20 μM hSNX27 wild type or single-site mutant; 25 °C; 50 mM HEPES pH 7.5, 200 mM NaCl, 5% glycerol, 1 mM β-ME; single-site model
condition.label: both partners purified
measurement.kind: Kd (µM)

[[record]]
binder = "NGIHEEQDQEPQDLFADA (SNX1, human, residues 75 to 92; also called SNX1 75 to 92; hSNX1_(75-92); source: synthetic peptide (Genscript)) [SNX1_(75-92) peptide]"
unit_tag = "µM"
readout_value = 56.4


Source listed as paper doi:10.1101/2021.08.28.457928.
